- System: 885512-296-R-J2-PDC complex spheroid growth, % test/control
- Test description: Anticancer human tumor 885512-296-R-J2-PDC patient-derived breast carcinoma cell line growth inhibition [Asc]
- Condition summary: curve of first compound; second compound 0.949 µM
- Excerpt: Multicellular complex tumor spheroid response to apoptosis pathway targeting inhibitors Alrizomadlin, Pelcitoclax, and Dasminapant in combination with a variety of drugs and investigational agents in selected tumor cell lines […] Compounds. […] If the clinical Cmax for an agent had not been determined, the highest concentration tested was 10 microM. […]
Metric: pIC50
Numbers only, as −log10 of the molar value.

1. O=C(c1cc(Cc2n[nH]c(=O)c3ccccc23)ccc1F)N1CCN(C(=O)C2CC2)CC1 + CCN1C(C(=O)NC23CCC(C(=O)O)(CC2)CC3)C(c2cccc(Cl)c2F)C2(C(=O)Nc3cc(Cl)ccc32)C12CCCCC2: 5.29

Q: I am curious: what pIC50 value has been reported for NC(=O)C(=Cn1cnc(-c2cc(C(F)(F)F)cc(C(F)(F)F)c2)n1)c1cncnc1 + CCN1C(C(=O)NC23CCC(C(=O)O)(CC2)CC3)C(c2cccc(Cl)c2F)C2(C(=O)Nc3cc(Cl)ccc32)C12CCCCC2 ?
A: 7.40

* * *

- Tested on: 885512-296-R-J2-PDC complex spheroid growth, % test/control
- Test description: Anticancer human tumor 885512-296-R-J2-PDC cell line growth inhibition [Asc];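 also: spheroids exposed to compounds for seven days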
- Condition summary: curve of first compound; second compound 0.01 µM
- Description: Multicellular complex tumor spheroid response to apoptosis pathway targeting inhibitors Alrizomadlin, Pelcitoclax, and Dasminapant in combination with a variety of drugs and investigational agents in selected tumor cell lines […] Compounds. […] If the clinical Cmax for an agent had not been determined, the highest concentration tested was 10 microM. […]
Give IC50 for every item shown.
Give bare numbers, in nM.

Sample records with IC50:
1. O=C(c1cc(Cc2n[nH]c(=O)c3ccccc23)ccc1F)N1CCN(C(=O)C2CC2)CC1 + CNC(C)C(=O)NC1CN(S(=O)(=O)c2cccc(S(=O)(=O)N3CCC4CCC(C(=O)NC(c5ccccc5)c5ccccc5)N4C(=O)C(NC(=O)C(C)NC)C3)c2)CCC2CCC(C(=O)NC(c3ccccc3)c3ccccc3)N2C1=O: 4110
2. Cn1ncnc1[C@H]1c2n[nH]c(=O)c3cc(F)cc(c23)N[C@@H]1c1ccc(F)cc1 + CNC(C)C(=O)NC1CN(S(=O)(=O)c2cccc(S(=O)(=O)N3CCC4CCC(C(=O)NC(c5ccccc5)c5ccccc5)N4C(=O)C(NC(=O)C(C)NC)C3)c2)CCC2CCC(C(=O)NC(c3ccccc3)c3ccccc3)N2C1=O: 26.2

Now consider a different molecule.
Q: I am curious: what IC50 value has been reported for CCN1CCN(Cc2ccc(Nc3ncc(F)c(-c4cc(F)c5nc(C)n(C(C)C)c5c4)n3)nc2)CC1 + CNC(C)C(=O)NC1CN(S(=O)(=O)c2cccc(S(=O)(=O)N3CCC4CCC(C(=O)NC(c5ccccc5)c5ccccc5)N4C(=O)C(NC(=O)C(C)NC)C3)c2)CCC2CCC(C(=O)NC(c3ccccc3)c3ccccc3)N2C1=O ?
A: 207

* * *

- Tested on: 885512-296-R-J2-PDC complex spheroid growth, % test/control
- Test description: Anticancer human tumor 885512-296-R-J2-PDC cell line growth inhibition [Asc];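 also: spheroids exposed to compounds for seven days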;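 as to viability, T/C: 100% = DMSO vehicle control wells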
- Condition summary: second compound 1 µM; first compound 0.1 µM; stronger effect = lower value
Metric: viability, T/C (%)
Answers are plain numbers, in %.

Sample records with viability, T/C:
1. C#Cc1c(F)ccc2cc(O)cc(-c3ncc4c(N5CC6CCC(C5)N6)nc(OCC56CCCN5CC(F)C6)nc4c3F)c12 (stereo not drawn) + Cc1c(S(C)(=O)=O)c(-c2cc(F)cc(N3CCN(c4ccc(NS(=O)(=O)c5ccc(NC(CCN6CCC(C(=O)OCCCP(=O)(O)O)CC6)CSc6ccccc6)c(S(=O)(=O)C(F)(F)F)c5)cc4)CC3)c2)c(-c2ccc(Cl)cc2)n1C(C)C: 82.9
2. C=C(F)C(=O)N1CCN(c2nc(OCC3CCCN3C)nc3c2CCN(c2cccc4cccc(Cl)c24)C3)CC1CC#N (stereo not drawn) + Cc1c(S(C)(=O)=O)c(-c2cc(F)cc(N3CCN(c4ccc(NS(=O)(=O)c5ccc(NC(CCN6CCC(C(=O)OCCCP(=O)(O)O)CC6)CSc6ccccc6)c(S(=O)(=O)C(F)(F)F)c5)cc4)CC3)c2)c(-c2ccc(Cl)cc2)n1C(C)C: 84.9

Now consider a different molecule.
Q: I am curious: what viability, T/C value has been reported for NC1CCC(NC2CC2c2ccccc2)CC1 (stereo not drawn) + CNC(C)C(=O)NC1CN(S(=O)(=O)c2cccc(S(=O)(=O)N3CCC4CCC(C(=O)NC(c5ccccc5)c5ccccc5)N4C(=O)C(NC(=O)C(C)NC)C3)c2)CCC2CCC(C(=O)NC(c3ccccc3)c3ccccc3)N2C1=O ?
A: 109

* * *

- Tested on: 885512-296-R-J2-PDC complex spheroid growth, % test/control
- Test description: Anticancer human tumor 885512-296-R-J2-PDC cell line growth inhibition [Asc]; active means viability on the fitted dose curve at most 10% of control; inactive means the rest;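 also: spheroids exposed to compounds for seven days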
- Condition summary: second compound 0.01 µM; first compound 1 µM
Assign a class; possible classes are true = active, false = inactive

Previously resolved entries follow.
1. O=C(c1cc(Cc2n[nH]c(=O)c3ccccc23)ccc1F)N1CCN(C(=O)C2CC2)CC1 + CNC(C)C(=O)NC1CN(S(=O)(=O)c2cccc(S(=O)(=O)N3CCC4CCC(C(=O)NC(c5ccccc5)c5ccccc5)N4C(=O)C(NC(=O)C(C)NC)C3)c2)CCC2CCC(C(=O)NC(c3ccccc3)c3ccccc3)N2C1=O: false
2. C=CC(=O)N1CCN(c2nc(=O)n(-c3c(C)ccnc3C(C)C)c3nc(-c4c(O)cccc4F)c(F)cc23)C(C)C1 (configuration not stated) + CNC(C)C(=O)NC1CN(S(=O)(=O)c2cccc(S(=O)(=O)N3CCC4CCC(C(=O)NC(c5ccccc5)c5ccccc5)N4C(=O)C(NC(=O)C(C)NC)C3)c2)CCC2CCC(C(=O)NC(c3ccccc3)c3ccccc3)N2C1=O: false
3. COc1c(OCCCN2CCOCC2)ccc2c3n(c(=NC(=O)c4cnc(N)nc4)nc12)CCN3 + CNC(C)C(=O)NC1CN(S(=O)(=O)c2cccc(S(=O)(=O)N3CCC4CCC(C(=O)NC(c5ccccc5)c5ccccc5)N4C(=O)C(NC(=O)C(C)NC)C3)c2)CCC2CCC(C(=O)NC(c3ccccc3)c3ccccc3)N2C1=O: true
4. C#Cc1c(F)ccc2cc(O)cc(-c3ncc4c(N5CC6CCC(C5)N6)nc(OCC56CCCN5CC(F)C6)nc4c3F)c12 (configuration not stated) + CNC(C)C(=O)NC1CN(S(=O)(=O)c2cccc(S(=O)(=O)N3CCC4CCC(C(=O)NC(c5ccccc5)c5ccccc5)N4C(=O)C(NC(=O)C(C)NC)C3)c2)CCC2CCC(C(=O)NC(c3ccccc3)c3ccccc3)N2C1=O: false
5. O=C(c1ccc(F)c(F)c1Nc1ccc(I)cc1F)N1CC(O)([C@@H]2CCCCN2)C1 + CNC(C)C(=O)NC1CN(S(=O)(=O)c2cccc(S(=O)(=O)N3CCC4CCC(C(=O)NC(c5ccccc5)c5ccccc5)N4C(=O)C(NC(=O)C(C)NC)C3)c2)CCC2CCC(C(=O)NC(c3ccccc3)c3ccccc3)N2C1=O: false

Q: Status in this test for CCN1CCN(Cc2ccc(Nc3ncc(F)c(-c4cc(F)c5nc(C)n(C(C)C)c5c4)n3)nc2)CC1 + CNC(C)C(=O)NC1CN(S(=O)(=O)c2cccc(S(=O)(=O)N3CCC4CCC(C(=O)NC(c5ccccc5)c5ccccc5)N4C(=O)C(NC(=O)C(C)NC)C3)c2)CCC2CCC(C(=O)NC(c3ccccc3)c3ccccc3)N2C1=O ?
A: false

Q: Status in this test for C=C(F)C(=O)N1CCN(c2nc(OCC3CCCN3C)nc3c2CCN(c2cccc4cccc(Cl)c24)C3)CC1CC#N (configuration not stated) + CNC(C)C(=O)NC1CN(S(=O)(=O)c2cccc(S(=O)(=O)N3CCC4CCC(C(=O)NC(c5ccccc5)c5ccccc5)N4C(=O)C(NC(=O)C(C)NC)C3)c2)CCC2CCC(C(=O)NC(c3ccccc3)c3ccccc3)N2C1=O ?
A: false

* * *

- Tested on: 885512-296-R-J2-PDC complex spheroid growth, % test/control
- Test description: Anticancer human tumor 885512-296-R-J2-PDC cell line growth inhibition [Asc];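 also: spheroids exposed to compounds for seven days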;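 as to viability, T/C: 100% = DMSO vehicle control wells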
- Condition summary: second compound 3 µM; first compound 0.01 µM; stronger effect = lower value
Metric: viability, T/C (%)
Numbers only, in %.

Sample records with viability, T/C:
1) CCN1CCN(Cc2ccc(Nc3ncc(F)c(-c4cc(F)c5nc(C)n(C(C)C)c5c4)n3)nc2)CC1 + CCN1C(C(=O)NC23CCC(C(=O)O)(CC2)CC3)C(c2cccc(Cl)c2F)C2(C(=O)Nc3cc(Cl)ccc32)C12CCCCC2: 35.3
2) CNC(C)C(=O)NC1CN(S(=O)(=O)c2cccc(S(=O)(=O)N3CCC4CCC(C(=O)NC(c5ccccc5)c5ccccc5)N4C(=O)C(NC(=O)C(C)NC)C3)c2)CCC2CCC(C(=O)NC(c3ccccc3)c3ccccc3)N2C1=O (stereo unspecified) + CCN1C(C(=O)NC23CCC(C(=O)O)(CC2)CC3)C(c2cccc(Cl)c2F)C2(C(=O)Nc3cc(Cl)ccc32)C12CCCCC2: 37.4
3) COc1c(OCCCN2CCOCC2)ccc2c3n(c(=NC(=O)c4cnc(N)nc4)nc12)CCN3 + CCN1C(C(=O)NC23CCC(C(=O)O)(CC2)CC3)C(c2cccc(Cl)c2F)C2(C(=O)Nc3cc(Cl)ccc32)C12CCCCC2: 32.4
4) O=C(c1ccc(F)c(F)c1Nc1ccc(I)cc1F)N1CC(O)([C@@H]2CCCCN2)C1 + CCN1C(C(=O)NC23CCC(C(=O)O)(CC2)CC3)C(c2cccc(Cl)c2F)C2(C(=O)Nc3cc(Cl)ccc32)C12CCCCC2: 35.9
5) Cn1ncnc1[C@H]1c2n[nH]c(=O)c3cc(F)cc(c23)N[C@@H]1c1ccc(F)cc1 + CCN1C(C(=O)NC23CCC(C(=O)O)(CC2)CC3)C(c2cccc(Cl)c2F)C2(C(=O)Nc3cc(Cl)ccc32)C12CCCCC2: 38.4

Now consider a different molecule.
Q: I am curious: what viability, T/C value has been reported for NC1CCC(NC2CC2c2ccccc2)CC1 (stereo unspecified) + CCN1C(C(=O)NC23CCC(C(=O)O)(CC2)CC3)C(c2cccc(Cl)c2F)C2(C(=O)Nc3cc(Cl)ccc32)C12CCCCC2 ?
A: 70.7

Entry source: PubChem BioAssay AID1963447
